Test system: HOP-62
method: NCI tumour cell line growth inhibition, 48 h
Activity calls are given as the source filed them. Rule as the data show it: active = GI50 up to about 1.1 µM and inactive = higher.
As shown below, each of these compounds has a reported GI50 value.

>>> result("Cc1ccc(CCCC(=O)O)cc1C")
"> 100 µM (inactive)"
>>> result("O=[N+]([O-])c1cc(Cl)cc2cc(Br)cnc12")
"> 31.6 µM (inactive)"
>>> result("O=C1/C(=C/c2cccs2)N=C(c2ccccc2)N1c1nc2ccccc2s1")
"> 100 µM (inactive)"
>>> result("C/C(=N\\O)c1cccc(Nc2c3ccccc3nc3occc23)c1")
"3.13 µM (inactive)"
>>> result("CCCCCCCCOCC(O)COC (stereo unspecified)")
"> 100 µM (inactive)"

// field: GI50; key: "CCOC(=O)C(=O)N/N=C1\C(=O)Nc2ccccc21" ; value = > 100 µM (inactive)

// field: GI50; key: "O=[N+]([O-])c1ccc(/C=N/C23CC4CC(CC(C4)C2)C3)cc1" ; value = > 100 µM (inactive)

// field: GI50; key: Nc1nc2c(ncn2CC(CO)CC(c2ccccc2)P(=O)(O)O)c(=O)[nH]1 (stereo unspecified) ; value = > 100 µM (inactive)

// field: GI50; key: "COc1cc2oc(-c3ccc4c(c3)OCO4)c(OC)c(=O)c2c(O)c1OC" ; value = 15.7 µM (inactive)

// field: GI50; key: "O=C(c1ccsc1)c1cc2c(s1)C(=O)c1ccsc1C2=O" ; value = 0.168 µM (active)

// field: GI50; key: "Cc1ccc2c(O)cc(-c3cc4ccccc4s3)nc2n1" ; value = 31.7 µM (inactive)

// field: GI50; key: COc1cc(C2c3c(ccc4ccccc34)C(=O)C3CCC(=O)N32)cc(OC)c1O (stereo unspecified) ; value = > 25 µM (inactive)

// field: GI50; key: CC(C)(Cl)C(Br)CC/C(=C/CCl)CBr.CC(C)(Cl)C(Br)CC/C(=C\CCl)CBr (stereo unspecified) ; value = 4.1 µM (inactive)

// field: GI50; key: C=CCNC(=O)N(CCC)CCCC(NC(C)=O)C(=O)NCc1ccccc1 (stereo unspecified) ; value = > 100 µM (inactive)

* * *

Tested on: SW-620
method: NCI tumour cell line growth inhibition, 48 h
Activity calls are given as the source filed them. No stated cut-off is given here; in the data, active = GI50 up to about 1.1 µM and inactive = higher.
assayMetric: GI50

>>> result("CC1=NN(c2ccc(S(=O)(=O)O)cc2)C2(C1)C(Cl)C(=O)N2c1nc2ccccc2s1 (centres undefined)")
"> 100 µM (inactive)"
>>> result("COC(=O)N1C[C@@]2(C=CC3(CC2)OCCO3)c2ccccc21")
"40.8 µM (inactive)"
>>> result("CCC1(C(=O)OC)CCc2c(OC)ccc(OC)c2C1=O (centres undefined)")
"> 100 µM (inactive)"
>>> result("Clc1ccccc1C1N2CCCCC2[C@@H]2c3[nH]c4ccccc4c3CCN12 (some centres undefined)")
"17.3 µM (inactive)"
>>> result("Cc1c(Cl)cccc1N1C(=O)C(Cl)=C(Cl)C1=O")
"> 58.2 µM (inactive)"
>>> result("COc1ccc2nc(N/N=C/c3ccc(C)s3)cc(C)c2c1")
"25.1 µM (inactive)"
>>> result("O=C1CCCC/C1=C\\c1ccc([N+](=O)[O-])cc1")
"1.96 µM (inactive)"
>>> result("C[C@]12CC[C@H](O)C[C@H]1CC[C@@H]1[C@@H]2CC[C@]2(C)[C@@H](C3=CC(=O)OC3)[C@@H](O)C[C@]12O [GITOXIGENIN]")
"3.18 µM (inactive)"

// field: GI50; key: Cc1nn(C(=O)c2ccc(Cl)cc2)c2c1C(c1ccccc1O)SC(=N)N2 (centres undefined) ; value = > 10 µM (inactive)

// field: GI50; key: COc1cc([C@@H]2c3cc4c(cc3[C@@H](NC(=O)c3ccc(OC(C)=O)cc3)C3COC(=O)[C@@H]32)OCO4)cc(OC)c1O (some centres undefined) ; value = 0.729 µM (active)
